test target: T1, murine CTLA4-Fc (R&D Systems) (mouse, UniProt P09793 36-162, limits assumed)
T1 construct: Bought fusion protein; also called mouse CTLA4; not shown: It was captured by an anti-human IgG-Fc antibody
experiment description: SPR, Biacore T100, 25 C; CTLA4-Fc captured on anti-human IgG-Fc, mutein as analyte; 1:1 Langmuir fit
attribute measured: koff (s⁻¹)
API: value field is a number in s⁻¹; no unit string.

[Q] Requested field: koff. Item: hNGALM3 (designed binder) QDSTSDLIPAPPLSKVPLQQNFQDNQFHGKWYVVGLAGNRILRQDQHPMLMYATIYELKGDKSYNVTSVISSHKKCLYPIATFVPGSQPGEFTLGNIKSYGDKVSYLVRVVSTDYNQYAVVFFKHADTNYESFSITIYGRTKELASELKENFIRFSKSLGLPENHIVFPVPIDQCIDGSAWSHPQFEK
[A] 0.000134

Now take the following binder into account.
[Q] # query: koff of entry hNGALM7 (designed binder) QDSTSDLIPAPPLSKVPLQQNFQDNQFHGKWYVVGLAGNRILRLDQHPMPMYATIYELKGDKSYNVTSVISSHKKCLYPIATFVPGSQPGEFTLGNIRSYGDKTSYLVRVVSTDYNQYAVVFFKHADTNYESFSITIYGRTKELASELKENFIRFSKSLGLPENHIVFPVPIDQCIDGSAWSHPQFEK
[A] 0.000108
